- TEST METHOD NOTES: small-molecule binders of probe aInhba, primary screen, biochemical, small-molecule microarray, 635/667 nm fluorescence (AID 1148);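 further: score merges 667nm spot fluorescence with signal-to-noise for antibody binding to printed compounds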
- CONDITION SET: higher = more signal
So basically: composite z-score at -0.1 or higher? That is label 1. Lower than -0.1? That is label 0.

Determine whether this molecule has composite z-score no lower than -0.1: CCOC(=O)NN=C1C[C@@H](O)[C@@H](O)[C@@H]2[C@@H]3C(=O)N([C@@H](C)c4ccccc4)C(=O)[C@@H]3CC[C@@H]12 label 1

Is the recorded value of composite z-score equal to or greater than -0.1 for this molecule? C=C(C)C(=O)OCC1CN2[C@@H](CC[C@@H](C)[C@@H]2c2ccc(Br)cc2)C(=O)O1 (some centres not stated) label 1

Given the entry CON=C1[C@H]2CCn3c(=O)n(-c4ccccc4)c(=O)n3[C@H]2[C@H](O)[C@@H]2O[C@H]12 , answer whether its composite z-score meets or surpasses -0.1. label 0

For this molecule, is measured composite z-score -0.1 or higher? C[C@@H]1NC(=O)[C@@H](C)COC(=O)[C@H](C)NC(=O)[C@@H](C)COC1=O label 1

Does C[C@H]1Cc2c(COc3ccccc3)nc3c(c2CO1)CN(CCOc1ccccc1)CC3 have a reported composite z-score of at least -0.1? label 0

hey, is composite z-score for this one >= -0.1? C#CCCCON=C1C[C@@H](O)[C@@H](O)[C@@H]2[C@@H]3C(=O)N(Cc4ccccc4)C(=O)[C@@H]3CC[C@@H]12 label 1

API: above_or_equal(metric=composite z-score, cutoff=-0.1) for item CO[C@@H]1COC(=O)[C@@H]2CCCN2C(=O)[C@@H](C)COC(=O)CC=C[C@H]1C label 1

Given the entry CCOC(=O)[C@H](CC(C)C)NC(=O)CCC1CC(OC(=O)NCCc2ccc(F)cc2)CC2(CCCC(COC(=O)NCCc3ccccc3OC)O2)O1 (some centres not stated) , answer whether its composite z-score meets or surpasses -0.1. label 1

Is composite z-score for C=CC1=C[C@H](O)[C@@H]2O[C@@H]2C12OCCCO2 at or above -0.1? label 1

Kindly determine if composite z-score recorded for C#CCCCON=C1[C@H]2CCn3c(=O)n(C)c(=O)n3[C@H]2[C@H](O)[C@@H]2O[C@H]12 is above or exactly -0.1. label 1

Entry C#CCCCON=C1[C@H]2CCn3c(=O)n(-c4ccccc4)c(=O)n3[C@H]2[C@H](O)[C@@H]2O[C@H]12 : is its composite z-score no less than -0.1? label 0

Textbook exercise: given the entry CC(C)[C@@H](OCc1ccccc1)[C@H](C)C=NOC[C@@H](O)COCc1ccco1 , state whether its composite z-score is greater than or equal to -0.1. label 0

Say whether CCN1C(=O)[C@H]2[C@H]3[C@H](O)[C@H](O)CC(=NNC(=O)OCc4ccc(OC)cc4)[C@@H]3CC[C@H]2C1=O shows composite z-score of -0.1 or more. label 1

Does the reported composite z-score for O=C1C=C[C@@H](O)[C@@H]2[C@@H]3C(=O)N(c4ccc(F)cc4F)C(=O)[C@@H]3CC[C@@H]12 fall at or above the -0.1 mark? label 0

Quick check, composite z-score >= -0.1? CCN1C(=O)[C@H]2[C@H]3[C@H](O)[C@H](O)CC(=NO[C@@H](C)c4cn([C@H](CO)Cc5ccccc5)nn4)[C@@H]3CC[C@H]2C1=O label 1
